- Tested on: E. coli ATCC25922
- assay: Bacterial growth minimal inhibitory concentration, microdilution in cation-adjusted Mueller-Hinton Broth (CLSI M7-A7)
- Format: cell-based
- assay.conditions: Escherichia coli, ATCC25922; quinolone-sensitive strain; read-out: MIC for E. coli ATCC25922
quantity: MIC (µg/mL)
Kindly provide the numeric value in µg/mL only, without the unit symbol.

compound	assay.system	MIC (µg/mL)
C[C@@](CCn1cnc2cc(C#CC#C[C@H]3C[C@]3(F)CO)ccc2c1=O)(C(=O)NO)S(C)(=O)=O (relative stereo)	E. coli ATCC25922	0.25
C[C@@](CCn1cnc2cc(C#CC#C[C@H]3C[C@@H]3CO)c(F)cc2c1=O)(C(=O)NO)S(C)(=O)=O	E. coli ATCC25922	0.125
CN(C)CC#CC#Cc1cc2ncn(CC[C@](C)(C(=O)NO)S(C)(=O)=O)c(=O)c2cc1F.O=CO	E. coli ATCC25922	0.25

Q. Can you share its MIC? I mean this compound: COc1ccc(-c2ccc3c(=O)n(CCC(C)(C(=O)NO)S(C)(=O)=O)cnc3c2)cc1F (racemic)
A. 0.25

Q. Can you share its MIC? I mean this compound: C[C@@](CCn1cnc2cc(C#CC#C[C@@H]3C[C@H]3CN)c(F)cc2c1=O)(C(=O)NO)S(C)(=O)=O.Cl
A. 8

---

Overview of recorded log10 MIC for various compounds
- Test system: E. coli ATCC25922
- assay: Bacterial growth minimal inhibitory concentration, microdilution in cation-adjusted Mueller-Hinton Broth (CLSI M7-A7)
- Type: cell-based
- assay.conditions: Escherichia coli, ATCC25922; quinolone-sensitive strain; read-out: MIC for E. coli ATCC25922
- Method: Minimal Inhibitory Concentrations (MICs; mg/L) were determined in cation-adjusted Mueller-Hinton Broth by a microdilution method following the description given in “Methods for Dilution Antimicrobial Susceptibility Tests for Bacteria that Grow Aerobically”, Approved standard, 7th ed., Clinical and Laboratory Standards Institute (CLSI) Document M7-A7, Wayne, Pa., U.S.A. (2006). All Example compounds were tested against several Gram-positive and Gram-negative bacteria. […]
Note the log scale: values are log10 of MIC expressed in µg/mL.

Solved cases below.
compound	log10 MIC
C[C@@](CCn1cnc2cc(C#Cc3ccc([C@@H](O)CO)cc3)ccc2c1=O)(C(=O)NO)S(C)(=O)=O	-0.30
C[C@@](CCn1cnc2cc(C#CC#CC3(CO)CC3)c(F)cc2c1=O)(C(=O)NO)S(C)(=O)=O	-0.60
C[C@@](CCn1cnc2cc(C#CC#CC3CCC(NC(=O)CN)C3)c(F)cc2c1=O)(C(=O)NO)S(C)(=O)=O.Cl (stereo partly drawn)	0.00
C[C@@](CCn1cnc2cc(C#CC#CC3(N)CC3)ccc2c1=O)(C(=O)NO)S(C)(=O)=O.O=CO	-0.60
C[C@@](CCn1cnc2c(F)c(C#CC#C[C@@H]3C[C@H]3CO)ccc2c1=O)(C(=O)NO)S(C)(=O)=O	-0.60
C[C@@](CCn1cnc2cc(C#Cc3ccc(CCO)cc3)ccc2c1=O)(C(=O)NO)S(C)(=O)=O	-0.90
C[C@@](CCn1cnc2cc(C#CC#CC3(C(O)CO)CC3)ccc2c1=O)(C(=O)NO)S(C)(=O)=O (mixture of isomers)	0.90
CC(CCn1cnc2cc(-c3ccc(OCCCN4CCOCC4)cc3F)ccc2c1=O)(C(=O)NO)S(C)(=O)=O.O=CO (racemic)	0.00

Q. Can you share its log10 MIC? I mean this compound: C[C@@](CCn1cnc2cc(C#CC#C[C@H]3C[C@@H]3CO)ccc2c1=O)(C(=O)NO)S(C)(=O)=O
A. -0.90

Q. Can you share its log10 MIC? I mean this compound: C[C@@](CCn1cnc2cc(C#CC#CC34CC(CO)(C3)C4)ccc2c1=O)(C(=O)NO)S(C)(=O)=O
A. -0.90

Q. Can you share its log10 MIC? I mean this compound: C[C@@](CCn1cnc2cc(C#CC#C[C@@]3(F)C[C@@H]3CO)ccc2c1=O)(C(=O)NO)S(C)(=O)=O (relative stereo)
A. -0.60

Q. Can you share its log10 MIC? I mean this compound: C[C@@]1(C#CC#Cc2ccc3c(=O)n(CC[C@](C)(C(=O)NO)S(C)(=O)=O)cnc3c2)C[C@H]1CO
A. -0.90

Q. Can you share its log10 MIC? I mean this compound: CC(C)(O)C#CC#Cc1cc2ncn(CC[C@](C)(C(=O)NO)S(C)(=O)=O)c(=O)c2cc1F
A. 0.00

Q. Can you share its log10 MIC? I mean this compound: CC(CCn1cnc2cc(-c3ccccc3)c(F)cc2c1=O)(C(=O)NO)S(C)(=O)=O (racemic)
A. -0.60

---

Overview of recorded MIC for various compounds
- System: E. coli ATCC25922
- assay: Bacterial growth minimal inhibitory concentration, microdilution in cation-adjusted Mueller-Hinton Broth (CLSI M7-A7)
- Format: cell-based
- assay.conditions: Escherichia coli, ATCC25922; quinolone-sensitive strain; read-out: MIC for E. coli ATCC25922
Kindly provide the numeric value in µg/mL only, without the unit symbol.

compound	MIC (µg/mL)
C[C@@](CCn1cnc2c(F)c(C#CC#C[C@H]3C[C@@H]3CO)ccc2c1=O)(C(=O)NO)S(C)(=O)=O [Example 23]	0.5
CC(CCn1cnc2cc(C#Cc3ccc(CO)cc3)ccc2c1=O)(C(=O)NO)S(C)(=O)=O (racemic) [RE10]	0.25

Q. Can you share its MIC? I mean this compound: C[C@]1(CO)C[C@@H]1C#CC#Cc1ccc2c(=O)n(CC[C@](C)(C(=O)NO)S(C)(=O)=O)cnc2c1 [Example 24]
A. 0.25

Q. Can you share its MIC? I mean this compound: C[C@@](CCn1cnc2cc(C#Cc3ccc(OCCO)cc3)ccc2c1=O)(C(=O)NO)S(C)(=O)=O [Example 14]
A. 0.25

Q. Can you share its MIC? I mean this compound: CC(CCn1cnc2cc(-c3ccc(CN4CCOCC4)cc3)ccc2c1=O)(C(=O)NO)S(C)(=O)=O.O=CO (racemic) [RE8]
A. 1

Q. Can you share its MIC? I mean this compound: CC(CCn1cnc2cc(-c3ccc(OCCN4CCOCC4)cc3F)ccc2c1=O)(C(=O)NO)S(C)(=O)=O.O=CO (racemic) [RE3]
A. 2

Q. Can you share its MIC? I mean this compound: CC(CCn1cnc2cc(-c3ccc(OCCCN4CCOCC4)cc3)ccc2c1=O)(C(=O)NO)S(C)(=O)=O.O=CO (racemic) [RE2]
A. 1

---

Overview of recorded MIC for various compounds
- Test system: E. coli ATCC25922
- assay: Bacterial growth minimal inhibitory concentration, microdilution in cation-adjusted Mueller-Hinton Broth (CLSI M7-A7)
- Assay type: cell-based
- assay.conditions: Escherichia coli, ATCC25922; quinolone-sensitive strain; read-out: MIC for E. coli ATCC25922
Kindly provide the numeric value in µg/mL only, without the unit symbol.

compound	assay.system	units.symbol	MIC
C[C@@](CCn1cnc2cc(C#CC#C[C@@H]3C[C@H]3[C@H](O)CO)ccc2c1=O)(C(=O)NO)S(C)(=O)=O	E. coli ATCC25922	µg/mL	1
CC(CCn1cnc2cc(C#Cc3ccc(C4(O)COC4)cc3)ccc2c1=O)(C(=O)NO)S(C)(=O)=O (racemic)	E. coli ATCC25922	µg/mL	1

Q. Can you share its MIC? I mean this compound: C[C@@](CCn1cnc2cc(C#CC#CC3(CO)CCC3)c(F)cc2c1=O)(C(=O)NO)S(C)(=O)=O
A. 0.25

Q. Can you share its MIC? I mean this compound: CC(CCn1cnc2cc(-c3ccc(CO)cc3)ccc2c1=O)(C(=O)NO)S(C)(=O)=O (racemic)
A. 2

Q. Can you share its MIC? I mean this compound: C[C@@](CCn1cnc2cc(-c3ccccc3)ccc2c1=O)(C(=O)NO)S(C)(=O)=O (single isomer, unassigned)
A. 0.25

Q. Can you share its MIC? I mean this compound: C[C@@](CCn1cnc2cc(C#CC#CCC3(O)COC3)c(F)cc2c1=O)(C(=O)NO)S(C)(=O)=O
A. 4

Q. Can you share its MIC? I mean this compound: CN(C)c1ccc(-c2ccc3c(=O)n(CCC(C)(C(=O)NO)S(C)(=O)=O)cnc3c2)cc1 (racemic)
A. 0.125

Q. Can you share its MIC? I mean this compound: C[C@@](CCn1cnc2cc(C#CC#C[C@@H](O)CO)ccc2c1=O)(C(=O)NO)S(C)(=O)=O
A. 8

Q. Can you share its MIC? I mean this compound: C[C@@](CCn1cnc2cc(C#CC#CC3(CO)CC3)ccc2c1=O)(C(=O)NO)S(C)(=O)=O
A. 0.25

Q. Can you share its MIC? I mean this compound: COc1cccc(-c2ccc3c(=O)n(CCC(C)(C(=O)NO)S(C)(=O)=O)cnc3c2)c1F (racemic)
A. 0.125

Q. Can you share its MIC? I mean this compound: C[C@@](CCn1cnc2cc(C#Cc3ccc(C4(CO)CC4)cc3)ccc2c1=O)(C(=O)NO)S(C)(=O)=O
A. 0.125

Q. Can you share its MIC? I mean this compound: C[C@@](CCn1cnc2cc(C#CC#CC3(O)COC3)ccc2c1=O)(C(=O)NO)S(C)(=O)=O
A. 4

Q. Can you share its MIC? I mean this compound: CC(CCn1cnc2cc(C#Cc3ccc(CN4CCOCC4)cc3)ccc2c1=O)(C(=O)NO)S(C)(=O)=O.O=CO (racemic)
A. 0.5
